B1: HDV Ribozyme (parent)
chain: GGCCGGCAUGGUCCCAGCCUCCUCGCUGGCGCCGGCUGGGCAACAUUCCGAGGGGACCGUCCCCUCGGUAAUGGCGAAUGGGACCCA

- Variants of: B1
- assay.comment: self-cleavage, relative activity (ratio to wild type); higher = more cleavage; co-transcriptional
measure.name: self-cleavage

[[record]]
variant_description = "A43U G80U"
measure_name = "self-cleavage"
value_measured = 0.173

[[record]]
variant_description = "U9A C15U"
measure_name = "self-cleavage"
value_measured = 1.02

[[record]]
variant_description = "C58G A87G"
measure_name = "self-cleavage"
value_measured = 0.874

[[record]]
variant_description = "A8C A56G"
measure_name = "self-cleavage"
value_measured = 0.939

[[record]]
variant_description = "G34A G54U"
measure_name = "self-cleavage"
value_measured = 0.17

[[record]]
variant_description = "U12G G50C"
measure_name = "self-cleavage"
value_measured = 0.727

[[record]]
variant_description = "U37A G73A"
measure_name = "self-cleavage"
value_measured = 0.0346

[[record]]
variant_description = "A8G A45C"
measure_name = "self-cleavage"
value_measured = 0.332

[[record]]
variant_description = "G5A C32U"
measure_name = "self-cleavage"
value_measured = 0.198

[[record]]
variant_description = "U9A C24U"
measure_name = "self-cleavage"
value_measured = 0.449

[[record]]
variant_description = "C3A C62U"
measure_name = "self-cleavage"
value_measured = 0.57

[[record]]
variant_description = "A16G C61G"
measure_name = "self-cleavage"
value_measured = 0.962

[[record]]
variant_description = "C3A C7U"
measure_name = "self-cleavage"
value_measured = 0.188

[[record]]
variant_description = "G53A U69A"
measure_name = "self-cleavage"
value_measured = 1.03

[[record]]
variant_description = "C15U C24A"
measure_name = "self-cleavage"
value_measured = 0.482

[[record]]
variant_description = "U20C A71U"
measure_name = "self-cleavage"
value_measured = 0.0898

[[record]]
variant_description = "G10C G38U"
measure_name = "self-cleavage"
value_measured = 0.132

[[record]]
variant_description = "C15G C26U"
measure_name = "self-cleavage"
value_measured = 0.623

[[record]]
variant_description = "C32G A83C"
measure_name = "self-cleavage"
value_measured = 0.0346

[[record]]
variant_description = "G35U G53U"
measure_name = "self-cleavage"
value_measured = 0.288

[[record]]
variant_description = "C15A G74C"
measure_name = "self-cleavage"
value_measured = 0.185

[[record]]
variant_description = "G34A A78C"
measure_name = "self-cleavage"
value_measured = 0.157

